Listed compounds paired with reported nuclei count
- assayRemarks: inhibitors of E-selectin induction by TNFa, primary screen, imaging, HUVEC, immunofluorescence, MLSMR starter and 10KST1 sets (AID 487);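 note: 100% = median nuclei count of all wells on the same plate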
- experimentalConditions: HUVEC TNFalpha-induced E-selectin immunofluorescence imaging, at 2 µM; measured here: cell number, toxicity

[
  {
    "compound": "Cn1nnnc1-c1cc(Br)ccc1NC(=O)c1ccccc1",
    "nuclei count (%)": 93.6
  },
  {
    "compound": "CCCCn1c(C)cc2cc(O)ccc21",
    "nuclei count (%)": 154
  },
  {
    "compound": "Cc1ccc(C(=O)CSC2=C(C#N)C(c3ccco3)C3=C(CCCC3=O)N2)cc1 (stereo not drawn)",
    "nuclei count (%)": 165
  },
  {
    "compound": "CC(=O)OCC(=O)[C@@]1(O)[C@H](C)C[C@H]2[C@@H]3CCC4=CC(=O)C=C[C@]4(C)[C@@]3(F)[C@@H](O)C[C@@]21C",
    "nuclei count (%)": 112
  },
  {
    "compound": "COc1ccc(-n2ccc(=O)c3c2CCCC3=O)cc1",
    "nuclei count (%)": 175
  },
  {
    "compound": "CCC1(C)Cc2c(sc3c2c(=O)n(C)c2nnc(SCC(=O)c4ccc(Cl)cc4)n32)CO1 (stereo not drawn)",
    "nuclei count (%)": 121
  },
  {
    "compound": "Cc1nnc2n(-c3ccccc3)c(=O)c3c4c(sc3n12)COC(C(C)C)C4 (stereo not drawn)",
    "nuclei count (%)": 177
  },
  {
    "compound": "COC(=O)C1C(=O)CC(C)(O)C(C(=O)OC)C1c1ccccc1F (stereo not drawn)",
    "nuclei count (%)": 178
  },
  {
    "compound": "CCn1cc(C(=O)NCCc2ccccc2)c(=O)c2cc(F)c(N3CCN(C)CC3)cc21",
    "nuclei count (%)": 186
  },
  {
    "compound": "CCc1cc2c(=O)c(-c3cscn3)coc2cc1O",
    "nuclei count (%)": 103
  },
  {
    "compound": "CN(C)c1nc2sc3c(c2c(=O)n1C)CC(C)(C)OC3",
    "nuclei count (%)": 185
  },
  {
    "compound": "CCOC(=O)COn1c(=O)c(-c2ccco2)[n+]([O-])c2ccccc21",
    "nuclei count (%)": 130
  },
  {
    "compound": "COc1ccc(N2C(=O)CN=C2Nc2nc(C)cc(C)n2)cc1",
    "nuclei count (%)": 144
  },
  {
    "compound": "CN(C)CCOC(=O)C(c1ccccc1)C1(O)CCCC1 (stereo not drawn)",
    "nuclei count (%)": 110
  },
  {
    "compound": "Cc1cc(N2CCN(C3CCCC3)CC2)n2c(nc3ccccc32)c1C#N",
    "nuclei count (%)": 110
  },
  {
    "compound": "Cc1cnc(NC(=O)C2=C(O)c3ccccc3S(=O)(=O)N2C)s1",
    "nuclei count (%)": 112
  },
  {
    "compound": "Cc1nnc2c(NC(C)C)nc3ccccc3n12",
    "nuclei count (%)": 137
  },
  {
    "compound": "COc1ccc(-c2cn3ccsc3n2)cc1",
    "nuclei count (%)": 197
  },
  {
    "compound": "O=C(C1CCN(c2nnc(-n3cccc3)s2)CC1)N1CCc2ccccc2C1",
    "nuclei count (%)": 104
  },
  {
    "compound": "O=C(CCCN1CC=C(n2c(=O)[nH]c3ccccc32)CC1)c1ccc(F)cc1",
    "nuclei count (%)": 128
  },
  {
    "compound": "CCCCOc1ccc(CN(C)c2ncnc(N)n2)cc1",
    "nuclei count (%)": 180
  },
  {
    "compound": "Oc1c(C=Nc2cccnc2)sc2ccccc12",
    "nuclei count (%)": 170
  },
  {
    "compound": "Cc1ccc(S(=O)(=O)/C(C#N)=C/c2c(N3CCN(C)CC3)nc3c(C)cccn3c2=O)cc1",
    "nuclei count (%)": 160
  }
]

----------
- experimentalSystem: Dual specificity protein phosphatase 6 (Homo sapiens)
- assayRemarks: DUSP6 inhibitors restoring Erk phosphorylation by chemical complementation, primary imaging in DUSP6-transfected HeLa (AID 609);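 for inhibition: phospho-Erk level distribution per well compared with pooled transfected vehicle control wells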
- experimentalConditions: HeLa MKP-3 transfected, phospho-Erk imaging KS statistic; at 10 µM; stronger effect = higher value; cells stimulated with TPA for 15 min

[
  {
    "compound": "CC1(C)C/C(=C(/C#N)C(N)=O)CCO1",
    "inhibition, %": -8.95
  },
  {
    "compound": "C=CCNc1nc(-c2cccc(OC)c2O)nc2ccccc12",
    "inhibition, %": 7.01
  },
  {
    "compound": "COc1ccc(C2/C(=C(/O)c3ccccc3)C(=O)C(=O)N2c2ncccn2)cc1OC (stereo unspecified)",
    "inhibition, %": 11.4
  },
  {
    "compound": "CCCc1[nH]n(-c2nc3ccccc3s2)c(=O)c1C=NCCN1CCOCC1",
    "inhibition, %": 7.93
  },
  {
    "compound": "COc1cccc(/C(O)=C2/C(=O)C(=O)N(CCN(C)C)C2c2ccc(Br)cc2)c1 (stereo unspecified)",
    "inhibition, %": -12.3
  },
  {
    "compound": "Cc1nc2c(o1)CCc1ccccc1C2O (stereo unspecified)",
    "inhibition, %": 15.5
  },
  {
    "compound": "CC1(C)SC2[C@H](NC(=O)C(NC(=O)N3CCNC3=O)c3ccccc3)C(=O)N2C1C(=O)O (stereo partly specified)",
    "inhibition, %": 15.3
  },
  {
    "compound": "O=C(O)CCc1cc(I)c(Oc2ccc(O)c(I)c2)c(I)c1",
    "inhibition, %": 9.37
  },
  {
    "compound": "CN1C(=O)N(c2ccccc2)C(Nc2nncs2)C1(C)C (stereo unspecified)",
    "inhibition, %": -2.29
  },
  {
    "compound": "CCOc1ccc(C2=Nn3c(nnc3-c3cccnc3)SC2)cc1",
    "inhibition, %": -9.66
  },
  {
    "compound": "c1ccc(CSc2nnc(SCc3ccccn3)s2)nc1",
    "inhibition, %": 3.66
  }
]

----------
- assayRemarks: DUSP6 inhibitors restoring Erk phosphorylation by chemical complementation, primary imaging in DUSP6-transfected HeLa (AID 609)
- experimentalConditions: HeLa MKP-3 transfected, phospho-Erk imaging KS statistic; measured here: cell density z-score; at 10 µM; cells stimulated with TPA for 15 min
Please enter yes (1) where z-score is greater than or equal to -0.02, and no (0) where it is lower.

[
  {
    "compound": "O=C(O)Cc1ccc(-c2ccccc2)cc1",
    "category": "yes (1)"
  },
  {
    "compound": "CN/C(=C/[N+](=O)[O-])NCCSCc1ccc(CN(C)C)o1",
    "category": "yes (1)"
  },
  {
    "compound": "COc1ccc(NCc2cc3ccccc3[nH]c2=O)cc1",
    "category": "no (0)"
  },
  {
    "compound": "CCN(CC)CCOC(=O)C1(c2ccc(OC)c(OC)c2)CCCC1",
    "category": "no (0)"
  },
  {
    "compound": "CCOC(=O)C1=C(CSc2nc(-c3ccncc3)ccc2C#N)OC(N)=C(C#N)C1c1cccnc1 (centres undefined)",
    "category": "no (0)"
  },
  {
    "compound": "Cn1c(SCC(=O)NCc2ccccc2)nc2ccccc21",
    "category": "yes (1)"
  },
  {
    "compound": "CC1CN(c2oc(-c3ccccc3Cl)nc2C#N)CC(C)O1 (centres undefined)",
    "category": "no (0)"
  },
  {
    "compound": "O=C(O)c1ccccc1Nc1cccc(C(F)(F)F)c1",
    "category": "yes (1)"
  },
  {
    "compound": "O=c1[nH]c(CN2CCCCC2)nc2c1C1(CCCC1)Cc1ccccc1-2",
    "category": "yes (1)"
  },
  {
    "compound": "C[C@]12CC[C@@H]3c4ccc(O)cc4C(=O)C[C@H]3[C@@H]1CC[C@@H]2O",
    "category": "yes (1)"
  },
  {
    "compound": "ClC(Br)=C(n1cnc2ccccc21)n1cnc2ccccc21",
    "category": "yes (1)"
  },
  {
    "compound": "COC(=O)CC1SC(=O)NC1=O (centres undefined)",
    "category": "no (0)"
  },
  {
    "compound": "CCC(C(=O)Nc1ncn[nH]1)(C(F)(F)F)C(F)(F)F",
    "category": "yes (1)"
  },
  {
    "compound": "COc1ccccc1N(O)C1CC(=O)N(c2ccc(Br)cc2)C1=O (centres undefined)",
    "category": "no (0)"
  },
  {
    "compound": "CC12CCC(C(=O)N(CCC#N)CCC#N)(CC1=O)C2(C)C (centres undefined)",
    "category": "no (0)"
  },
  {
    "compound": "CC(C)(C)c1nnc2sc(SCC(=O)c3ccccc3)nn2c1=O",
    "category": "no (0)"
  },
  {
    "compound": "COCc1cc(C)nc(SCC(=O)Nc2ccc(C)c(C)c2)c1C#N",
    "category": "no (0)"
  },
  {
    "compound": "CCCCc1cc(=O)oc2c(CN(C)C)c(O)c(Cl)cc12",
    "category": "no (0)"
  },
  {
    "compound": "Cc1coc2c(O)cc3c(c12)OC1(N2CCCCC2)C(=O)NCCCC31 (centres undefined)",
    "category": "no (0)"
  },
  {
    "compound": "C=C1C2(C(=O)Nc3nccs3)CCC(C2)C1(C)C (centres undefined)",
    "category": "no (0)"
  },
  {
    "compound": "COc1ccc(-c2nn3c(-c4ccccn4)nnc3s2)cc1OC",
    "category": "yes (1)"
  },
  {
    "compound": "O=C(NC1CCCCC1)N1CCSC1=Nc1ccccc1",
    "category": "yes (1)"
  },
  {
    "compound": "COc1cc(NS(=O)(=O)c2ccc(N)cc2)nc(OC)n1",
    "category": "yes (1)"
  },
  {
    "compound": "COc1ccc2[nH]c(C)c(C(=O)CN3CCc4cc(OC)c(OC)cc4C3)c2c1",
    "category": "no (0)"
  }
]
